Quick list: IC50 per entry.
targetDesc: Sodium-dependent dopamine transporter (Rattus norvegicus)
Sequence (P23977 whole entry): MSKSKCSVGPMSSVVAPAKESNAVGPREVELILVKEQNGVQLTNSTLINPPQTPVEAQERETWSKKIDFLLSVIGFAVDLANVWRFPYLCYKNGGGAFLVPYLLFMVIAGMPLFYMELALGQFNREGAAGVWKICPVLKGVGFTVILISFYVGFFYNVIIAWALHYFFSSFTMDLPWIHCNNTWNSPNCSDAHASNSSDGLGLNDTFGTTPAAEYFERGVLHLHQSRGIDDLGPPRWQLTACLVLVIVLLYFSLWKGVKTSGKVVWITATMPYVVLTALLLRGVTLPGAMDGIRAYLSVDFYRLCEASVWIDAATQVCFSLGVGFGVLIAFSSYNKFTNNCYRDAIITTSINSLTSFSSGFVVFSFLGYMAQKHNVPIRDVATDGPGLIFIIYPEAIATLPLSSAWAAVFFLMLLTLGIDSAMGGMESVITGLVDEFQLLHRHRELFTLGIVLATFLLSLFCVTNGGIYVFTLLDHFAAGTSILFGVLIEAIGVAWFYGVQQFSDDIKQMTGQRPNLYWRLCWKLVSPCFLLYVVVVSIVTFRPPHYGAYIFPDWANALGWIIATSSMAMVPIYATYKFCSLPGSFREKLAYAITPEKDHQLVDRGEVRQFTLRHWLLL
testName: Inhibition of [3H]WIN-35428 binding to dopamine transporter of rat striatum
Type: tissue-based
All answers are understood in nM, so give the number only.

Example cases with answers are listed next.
COc1ccc(CN2CCN3C[C@H]2CC[C@@H]3C(c2ccccc2)c2ccccc2)cc1
329
Fc1ccc(CNC2CCC(C(c3ccccc3)c3ccccc3)NC2)cc1 (stereo not drawn)
33.8

For the next question, use this compound.
Q. Indicate the recorded IC50 value for this compound: O=S(=O)(Nc1ccc(CN2CCN3CC2CCC3C(c2ccccc2)c2ccccc2)cc1)c1ccc(Cl)cc1 (stereo not drawn)
A. 371

Entry source: ChEMBL document CHEMBL1137217
